Values compiled from ChEMBL document CHEMBL1147196.

# System: Leishmania donovani
# test.method.notes: Antipromastigote activity against Leishmania donovani MHOM IN/Dd8 assessed as luciferase activity after 72 hrs
# Format: functional, organism-based
# conditions.used: MHOM IN/Dd8, 72 h
recorded.endpoint: IC90

> print(dat)
                                   compound       assayed.target    reported
1  Cc1c(OCCCCCOc2c(C)n(-c3ccccc3)ccc2=O)c(=O)ccn1-c1ccccc1  Leishmania donovani  49.8 µg/mL
2   N=C(N)c1ccc(OCCCCCOc2ccc(C(=N)N)cc2)cc1  Leishmania donovani  0.88 µg/mL
3  Cc1occc(=O)c1OCCCCCOc1c(C)n(-c2ccc(F)cc2)ccc1=O  Leishmania donovani   856 µg/mL
4  Cc1c(OCCCCCOc2c(C)n(Cc3ccccc3)ccc2=O)c(=O)ccn1Cc1ccccc1  Leishmania donovani  29.3 µg/mL
5  Cc1occc(=O)c1OCCCCCOc1c(C)n(-c2ccc([N+](=O)[O-])cc2)ccc1=O  Leishmania donovani  20.2 µg/mL
